src = ChEMBL document CHEMBL5724796

# experimental.system: Cyclin-dependent kinase 2 (Homo sapiens) (UniProt P24941)
# experimental.setup: Compound concentration 20.0 uM
# Description: Thermal Shift Assay. Domain: start/stop: M1-L298
Reported ΔTm values for the following compounds.

{"columns": ["smiles", "experimental.system", "ΔTm"],
 "data": [
  ["CNC[C@@H](O)COc1ccc(Cl)c(-c2nc(-c3c(C)noc3C)c(C)c(N3CC4(CCN(C(=O)OC)CC4)C3)n2)c1", "Cyclin-dependent kinase 2 (Homo sapiens) (UniProt P24941)", "0.32 °C"],
  ["C[C@H]1CCCN1Cc1nc2cc(NC(=O)c3ccc4c(cnn4C)c3)ccc2[nH]1", "Cyclin-dependent kinase 2 (Homo sapiens) (UniProt P24941)", "0.64 °C"],
  ["Cc1ccc2c(c1)nc(/C=C/c1cccc3cccnc13)n2-c1cccc(OCCCN2CCN(C)CC2)c1", "Cyclin-dependent kinase 2 (Homo sapiens) (UniProt P24941)", "-0.28 °C"],
  ["O=C1CCc2cc(OCCCCc3nnnn3C3CCCCC3)ccc2N1", "Cyclin-dependent kinase 2 (Homo sapiens) (UniProt P24941)", "-0.24 °C"],
  ["NCCCOc1cc2ccccc2cc1C(=O)NCCOc1cc2ccccc2cc1C(=O)Nc1ccc(Cl)cc1O", "Cyclin-dependent kinase 2 (Homo sapiens) (UniProt P24941)", "-1.85 °C"]
]}

* * *

# experimental.system: Tyrosine-protein kinase ABL1 (Homo sapiens)
# experimental.setup: Compound concentration 20.0 uM
# Description: Thermal Shift Assay. Domain: start/stop: S229-K512
Doc: threshold 0.5 °C (exclusive). Items with ΔTm beneath it return Criterion met; others return Criterion not met.

{"columns": ["smiles", "category.label"],
 "data": [
  ["COc1cc2c(cc1-c1c(C)noc1C)[nH]c1nc(C)nc(Nc3cc(C4CC4)nn3C)c12", "Criterion not met"],
  ["COc1cc2c(NC3CCN(C4CCCCC4)CC3)nc(N3CCCN(C(C)C)CC3)nc2cc1OCCCN1CCCCC1", "Criterion met"],
  ["CC(C)NC(=O)c1ccc(OC(F)F)c(OCC2CC2)c1", "Criterion not met"],
  ["Cc1c(CN2CCC(Nc3ncnc4sc(CC(F)(F)F)cc34)CC2)ccc2[nH]c(C#N)cc12", "Criterion met"],
  ["C[C@@H]1O[C@@H](CC(=O)O)CC2=C1C(=O)c1c(O)cccc1C2=O", "Criterion not met"]
]}

* * *

# experimental.system: Aurora kinase A (Homo sapiens)
# Sequence (whole entry): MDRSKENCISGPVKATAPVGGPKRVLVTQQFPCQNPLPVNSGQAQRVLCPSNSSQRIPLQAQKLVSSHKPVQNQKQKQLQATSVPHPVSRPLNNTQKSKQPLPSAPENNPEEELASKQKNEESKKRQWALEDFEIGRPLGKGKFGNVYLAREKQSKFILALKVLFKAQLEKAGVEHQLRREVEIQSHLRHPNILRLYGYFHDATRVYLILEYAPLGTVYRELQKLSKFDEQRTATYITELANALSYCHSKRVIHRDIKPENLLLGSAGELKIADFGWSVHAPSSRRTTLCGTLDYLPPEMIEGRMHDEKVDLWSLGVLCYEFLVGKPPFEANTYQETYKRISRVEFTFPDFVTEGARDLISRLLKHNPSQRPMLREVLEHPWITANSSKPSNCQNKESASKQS
# experimental.setup: Compound concentration 20.0 uM
# Description: Thermal Shift Assay. Domain: start/stop: E122-S403
Residues, ends and D or L forms follow the SMILES beside them. *: point of attachment. Cbz = O=C(OCc1ccccc1)*
Reported ΔTm values for the following compounds.

{"columns": ["compound", "ΔTm / °C"],
 "data": [
  ["CCCOc1ccc(CCc2nc3cc(-c4c(C)noc4C)ccc3n2CCN2CCOCC2)cc1", -1.97],
  ["C[C@@H](Oc1ccc(CNC(=O)c2cccnc2Oc2ccc3c(c2)OCO3)c(F)c1)C(=O)O", -1.52],
  ["CC(=O)NCC(=O)N1CCC[C@@H]1B(O)O", -1.86],
  ["COc1ccc(OC)c(-c2nnc3n2N=C(c2ccc(OC)c(OC)c2)CS3)c1", -1.28],
  ["Cc1cc(C)nc(SCC(=O)Nc2ncc(Cc3cccc4ccccc34)s2)n1", -1.18],
  ["O=CC1CCCN1C(=O)C1CCCN1C(=O)OCc1ccccc1 (stereo not drawn) (Cbz-Pro-Pro-aldehyde; configuration not given here)", -0.83],
  ["COc1cc(Nc2ncc(F)c(Nc3ccc4c(n3)N(COP(=O)(O)O)C(=O)C(C)(C)O4)n2)cc(OC)c1OC", 13.3],
  ["CCc1c(-c2ccccc2)c(-c2ccccc2)nn1-c1ccccc1-c1cccc(OCC(=O)O)c1", -3.9],
  ["CC1(C)Cn2nc(-c3ccc(F)cn3)c(-c3ccnc4[nH]ncc34)c2CO1", -0.55]
]}
